Assay: Pharmacokinetic test in mice
Assay type: in vivo, ICR mice
Settings: mouse, plasma, po, i.g. (10 mg/kg)
readout name: bioavailability (%)
// return numeric value only (unit: %, not printed)

[
  {
    "molecule": "N#Cc1c(NS(=O)(=O)N2CC(=CF)C2)ccc(F)c1Oc1ccc2ncn(CC(F)F)c(=O)c2c1 [Compound 11]",
    "u": "%",
    "bioavailability": 98.1
  },
  {
    "molecule": "CC=C1CN(S(=O)(=O)Nc2ccc(F)c(Oc3ccc4ncn(CCF)c(=O)c4c3)c2C#N)C1 [Compound 14]",
    "u": "%",
    "bioavailability": 85.1
  },
  {
    "molecule": "C=C1CN(S(=O)(=O)Nc2ccc(F)c(Oc3ccc4ncn(CC(F)F)c(=O)c4c3)c2C#N)C1 [Compound 3]",
    "u": "%",
    "bioavailability": 84.5
  }
]

For the next question, use this molecule.
Query: Note down bioavailability recorded for CC=C1CN(S(=O)(=O)Nc2ccc(F)c(Oc3ccc4ncn(CC(F)F)c(=O)c4c3)c2C#N)C1 [Compound 7]
Response: 90.6

----------
Experiment: Pharmacokinetic test in mice
Assay type: in vivo, ICR mice
Conditions: mouse, iv, plasma, i.v. (2.5 mg/kg)
As shown below, each of these molecules has a reported AUC(0-t) value.
The reply should be a number in µg·h/mL, with the unit left off.

[
  {
    "molecule": "N#Cc1c(NS(=O)(=O)N2CC(=CF)C2)ccc(F)c1Oc1ccc2ncn(CC(F)F)c(=O)c2c1 [Compound 11]",
    "readout name": "AUC(0-t)",
    "value": 245
  },
  {
    "molecule": "C=C1CN(S(=O)(=O)Nc2ccc(F)c(Oc3ccc4ncn(CC(F)F)c(=O)c4c3)c2C#N)C1 [Compound 3]",
    "readout name": "AUC(0-t)",
    "value": 225
  },
  {
    "molecule": "CC=C1CN(S(=O)(=O)Nc2ccc(F)c(Oc3ccc4ncn(CCF)c(=O)c4c3)c2C#N)C1 [Compound 14]",
    "readout name": "AUC(0-t)",
    "value": 268
  },
  {
    "molecule": "CC=C1CN(S(=O)(=O)Nc2ccc(F)c(Oc3ccc4ncn(CC(F)F)c(=O)c4c3)c2C#N)C1 [Compound 7]",
    "readout name": "AUC(0-t)",
    "value": 228
  }
]

Turning now to a further record.
Query: Check the records and state AUC(0-t) for CC(F)=C1CN(S(=O)(=O)Nc2ccc(F)c(Oc3ccc4ncn(CC(F)F)c(=O)c4c3)c2C#N)C1 [Compound 24]
Response: 91.8

----------
Test: Pharmacokinetic test in rats
Assay type: in vivo, SD rats
Details: rat, plasma, po, i.g. (10 mg/kg)
readout name: bioavailability

[
  {
    "molecular string": "C=C1CN(S(=O)(=O)Nc2ccc(F)c(Oc3ccc4ncn(CC(F)F)c(=O)c4c3)c2C#N)C1",
    "bioavailability": "62.8%"
  }
]

Could you now look at the following molecule, please?
Query: Let me know recorded bioavailability for `CC=C1CN(S(=O)(=O)Nc2ccc(F)c(Oc3ccc4ncn(CC(F)F)c(=O)c4c3)c2C#N)C1` , thanks.
Response: 81.3%

----------
Test: Pharmacokinetic test in mice
Type: in vivo, ICR mice
Details: mouse, in vivo, po, plasma, i.g. (10 mg/kg)
readout name: AUC(0-t)
Hi, when you answer, please include the unit after the number. Thanks!

Query: Please report AUC(0-t) for the following compound: `C=C1CCN(S(=O)(=O)Nc2ccc(F)c(Oc3ccc4ncn(CC(F)F)c(=O)c4c3)c2C#N)C1`
Response: 373 µg·h/mL

# credit: patent EP4813985A1
